ASSAY_TEXT: Lipophilicity, logP of compound in n-octanol/water partition co-efficient by RP-HPLC analysis
Assay type: physicochemical
METRIC: logP

1. O=C(/C=C/c1ccc(C(F)(F)F)cc1)OC1(C(=O)Nc2ccc(N3C(=O)c4ccccc4C3=O)cc2)CCCCC1 ... 1.8
2. O=C(Cc1c[nH]c2ccccc12)OC1(C(=O)Nc2ccc(N3C(=O)c4ccccc4C3=O)cc2)CCCCC1 ... 3.91
3. O=C(CNS(=O)(=O)c1ccccc1)OC1(C(=O)Nc2ccc(N3C(=O)c4ccccc4C3=O)cc2)CCCCC1 ... 2.55
4. O=C(COc1ccccc1-c1nc(-c2ccccc2)no1)OC1(C(=O)Nc2ccc(N3C(=O)c4ccccc4C3=O)cc2)CCCCC1 ... 1.85

---

Listing of recorded Activity by entry.
Test system: MDA-MB-231
ASSAY_TEXT: Induction of apoptosis in human MDA-MB-231 cells assessed as early apoptotic cells at IC50 measured after 72 hrs by Annexin V/PI staining based flow cytometry (reference value: 0.13 %)
Format: functional
METRIC: Activity (%)

1. O=C(COc1ccccc1-c1nc(-c2ccccc2)no1)OC1(C(=O)Nc2ccc(N3C(=O)c4ccccc4C3=O)cc2)CCCCC1 ... 4.07
2. O=C(/C=C/c1ccc(C(F)(F)F)cc1)OC1(C(=O)Nc2ccc(N3C(=O)c4ccccc4C3=O)cc2)CCCCC1 ... 4.15
3. O=C(Cc1c[nH]c2ccccc12)OC1(C(=O)Nc2ccc(N3C(=O)c4ccccc4C3=O)cc2)CCCCC1 ... 4.255
4. O=C(CNS(=O)(=O)c1ccccc1)OC1(C(=O)Nc2ccc(N3C(=O)c4ccccc4C3=O)cc2)CCCCC1 ... 5.26

---

Species: Homo sapiens
ASSAY_TEXT: Selectivity index, ratio of IC50 for human WI-38 cells to IC50 for human Caco-2 cells
# Ratio IC50 values compiled below
METRIC: Ratio IC50

1) O=C(CS)OC1(C(=O)Nc2ccc(N3C(=O)c4ccccc4C3=O)cc2)CCCCC1 ... 8.66
2) O=C(OC1(C(=O)Nc2ccc(N3C(=O)c4ccccc4C3=O)cc2)CCCCC1)c1ccccc1Cl ... 14.2
3) O=C(OC1(C(=O)Nc2ccc(N3C(=O)c4ccccc4C3=O)cc2)CCCCC1)c1ccc([N+](=O)[O-])cc1 ... 15.4
4) O=c1[nH]cc(F)c(=O)[nH]1 [FLUOROURACIL] ... 12
5) O=C(/C=C/c1ccc(C(F)(F)F)cc1)OC1(C(=O)Nc2ccc(N3C(=O)c4ccccc4C3=O)cc2)CCCCC1 ... 40
6) O=C(OC1(C(=O)Nc2ccc(N3C(=O)c4ccccc4C3=O)cc2)CCCCC1)c1ccc(NS(=O)(=O)c2ccccc2)cc1 ... 10.6
7) O=C(OC1(C(=O)Nc2ccc(N3C(=O)c4ccccc4C3=O)cc2)CCCCC1)c1ccccc1 ... 10.1
8) O=C(OC1(C(=O)Nc2ccc(N3C(=O)c4ccccc4C3=O)cc2)CCCCC1)c1ccccc1[N+](=O)[O-] ... 9.64

---

ASSAY_TEXT: Selectivity index, ratio of IC50 for human WI-38 cells to IC50 for human A549 cells
Format: toxicity
MEASUREMENT_SETUP: WI-38 cells versus A549 cells, read-out: Ratio IC50
The following compounds are shown together with reported selectivity ratio values.
METRIC: selectivity ratio

1) O=C(CNS(=O)(=O)c1ccccc1)OC1(C(=O)Nc2ccc(N3C(=O)c4ccccc4C3=O)cc2)CCCCC1 ... 25.1
2) O=C(OC1(C(=O)Nc2ccc(N3C(=O)c4ccccc4C3=O)cc2)CCCCC1)c1ccccc1[N+](=O)[O-] ... 9.87
3) O=C(OC1(C(=O)Nc2ccc(N3C(=O)c4ccccc4C3=O)cc2)CCCCC1)c1ccc2ccccc2n1 ... 23.8
4) O=C(OC1(C(=O)Nc2ccc(N3C(=O)c4ccccc4C3=O)cc2)CCCCC1)c1ccc([N+](=O)[O-])cc1 ... 17.4
5) O=C(OC1(C(=O)Nc2ccc(N3C(=O)c4ccccc4C3=O)cc2)CCCCC1)c1ccccc1 ... 11.5
6) O=C(OC1(C(=O)Nc2ccc(N3C(=O)c4ccccc4C3=O)cc2)CCCCC1)c1ccccc1I ... 8.28
7) Nc1ccc(NC(=O)C2(O)CCCCC2)cc1 ... 24
8) [N-]=[N+]=Nc1ccc(C(=O)OC2(C(=O)Nc3ccc(N4C(=O)c5ccccc5C4=O)cc3)CCCCC2)cc1 ... 9.76
9) O=c1[nH]cc(F)c(=O)[nH]1 ... 1.08
10) O=C(Cc1c[nH]c2ccccc12)OC1(C(=O)Nc2ccc(N3C(=O)c4ccccc4C3=O)cc2)CCCCC1 ... 45.4
11) O=C1c2ccccc2C(=O)N1c1ccc(NC(=O)C2(OC(=O)C(F)(F)F)CCCCC2)cc1 ... 36.5
